We begin with a simple list: items and their reported kon.
- system: T1, hexa-His-tagged 14-3-3ζ (UniProt P63104 1-245)
- T1 construct: 14-3-3 protein zeta; expressed and purified essentially as in Kostelecky et al., 2009; eluted as a dimer of ~60 kDa; the ITC methods call it 'the 14-3-3ζ domain'; source: E. coli BL21(DE3) Star, purified (HisTrap, size-exclusion chromatography)
- T1 sequence: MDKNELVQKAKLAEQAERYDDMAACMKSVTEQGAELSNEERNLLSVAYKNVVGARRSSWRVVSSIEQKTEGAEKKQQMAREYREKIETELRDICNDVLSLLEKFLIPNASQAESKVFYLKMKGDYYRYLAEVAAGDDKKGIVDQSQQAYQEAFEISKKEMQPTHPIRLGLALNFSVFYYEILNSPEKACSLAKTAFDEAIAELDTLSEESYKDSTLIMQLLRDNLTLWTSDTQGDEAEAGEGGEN
- measurement description: BLI; Octet RED96; biotinylated peptides immobilised on streptavidin-coated biosensors (1 μg/ml, 300 s); dilution series of 14-3-3ζ for 300 s, dissociation 300 s; BI buffer 25 mM Tris, 150 mM NaCl, 0.1% Tween-20; data of a typical experiment (n ≥ 3)
- assay setup: both partners purified
Square brackets hold non-standard residues; d marks the D form. Ends that are not written are not given here. * marks the point of attachment. Geranylgeranyl = CC(C)=CCC/C(C)=C/CC/C(C)=C/CC/C(C)=C/C*; Biotin = O=C1N[C@H]2[C@H](CS[C@H]2CCCCC(=O)*)N1; pT = C[C@@H](OP(=O)(O)O)[C@H](N)C(=O)O; pS = N[C@@H](COP(=O)(O)O)C(=O)O; Ahx = NCCCCCC(=O)O

binder | kon / M⁻¹ s⁻¹
{Biotin-Ahx}-PTPIKRGR[pS]C(Geranylgeranyl) (source: synthetic peptide) | 41000
{Biotin-Ahx}-PGKARKKS[pS]C(Geranylgeranyl) (source: synthetic peptide) | 320000
{Biotin-Ahx}-TNTERRSK[pS]C(Geranylgeranyl) (also called RPRG; source: synthetic peptide) | 240000
{Biotin-Ahx}-EKKKPKKK[pS]C(Geranylgeranyl) (also called Rap1A+P+GG; source: synthetic peptide) | 1.4e+06
{Biotin-Ahx}-GGDDKKSK[pT]C(Geranylgeranyl) (source: synthetic peptide) | 410000

The origin of these recorded values is paper PMC3690454.
